- METHOD DESCRIPTION: P. falciparum Dd2 growth inhibitors, primary screen, SYBR Green fluorescence, single dose replicates (AID 1159554)
- TEST CONDITIONS: 72 h, at 10 µM, active compounds read low
Among all 94,000 compounds or so, about 2,100 (2.2%) were called active. The full list was thinned out, with actives kept by preference.
Mark Criterion met for activity change under -70%, Criterion not met if at or over.

C[C@@H]1CN([C@H](C)CO)C(=O)c2cc(NC(=O)Nc3ccc(F)cc3)ccc2O[C@@H](C)CCCCO[C@H]1CN(C)Cc1ccc(Cl)c(Cl)c1	Criterion met
C[C@@H]1CCCCO[C@@H](CN(C)Cc2ccc(Cl)c(Cl)c2)[C@H](C)CN([C@H](C)CO)C(=O)c2cc(NC(=O)Nc3ccc(F)cc3)ccc2O1	Criterion met
CNC[C@H]1Oc2cc(C#Cc3ccccc3)ccc2S(=O)(=O)N([C@@H](C)CO)C[C@@H]1C	Criterion met
C[C@H]1CCCCO[C@@H](CN(C)Cc2ccc(C(F)(F)F)cc2)[C@@H](C)CN([C@@H](C)CO)C(=O)c2cc(NC(=O)Nc3ccccc3)ccc2O1	Criterion met

Moving on to another molecule below.
Exercise: Please determine if C[C@H]1CCCCO[C@@H](CN(C)C(=O)Nc2ccccc2)[C@@H](C)CN([C@@H](C)CO)C(=O)c2cc(NC(=O)Nc3ccc(F)cc3)ccc2O1 is below -70% in terms of activity change.
Solution: Criterion not met

====

- METHOD DESCRIPTION: P. falciparum Dd2 growth inhibitors, primary screen, SYBR Green fluorescence, single dose replicates (AID 1159554)
- TEST CONDITIONS: 72 h, at 10 µM, active compounds read low
The campaign covered roughly 94,000 compounds. About 2,100 (2.2%) were called active. Shown is part of a subset that was picked to be rich in actives.
Mark Fulfilled for activity change under -20%, Not fulfilled if at or over.

C[C@H](CO)N1C[C@H](C)[C@H](CN(C)C(=O)C2CCCCC2)Oc2ncc(C#CC3CC3)cc2C1=O	Not fulfilled

Exercise: Please determine if O=C(N[C@@H]1C=C[C@H](CC(=O)N2CCOCC2)O[C@H]1CO)c1ccccn1 is below -20% in terms of activity change.
Solution: Not fulfilled

Exercise: Please determine if O=C(Nc1ccccc1)N[C@@H]1CC[C@H](CCn2cc(-c3ccccc3F)nn2)O[C@@H]1CO is below -20% in terms of activity change.
Solution: Fulfilled

Exercise: Please determine if C[C@H]1CN([C@@H](C)CO)C(=O)c2cc(/C=C/c3ccccc3)cnc2O[C@@H]1CN(C)C(=O)NC1CCCCC1 is below -20% in terms of activity change.
Solution: Fulfilled

Exercise: Please determine if COc1ccc(CN(C)C[C@H]2Oc3ccc(NS(=O)(=O)c4ccc(Cl)cc4)cc3CC(=O)N([C@@H](C)CO)C[C@H]2C)cc1 is below -20% in terms of activity change.
Solution: Not fulfilled

Exercise: Please determine if CC(C)CC#Cc1ccc2c(c1)O[C@H](CN(C)Cc1ccccc1F)[C@@H](C)CN([C@@H](C)CO)S2(=O)=O is below -20% in terms of activity change.
Solution: Fulfilled

====

- METHOD DESCRIPTION: P. falciparum Dd2 growth inhibitors, primary screen, SYBR Green fluorescence, single dose replicates (AID 1159554)
- TEST CONDITIONS: 72 h, at 10 µM
Hit rate of the full screen: of about 94,000 compounds, about 2,100 (2.2%) were called active. Rule as the data show it: active = activity change below about -80%; inconclusive = no clear call, values can overlap the other calls; inactive = above that. What follows is part of a selection rich in actives, with near analogues and random picks from the rest.
I would appreciate it if you answered using one of these outcomes: active, inactive

Field: example entries. Status: answers known.
CC(C)NC(=O)N(C)C[C@@H]1OCCCC[C@@H](C)Oc2ccc(NC(=O)Cc3ccccc3)cc2C(=O)N([C@H](C)CO)C[C@H]1C	inactive
CCS(=O)(=O)N1[C@H](CO)[C@@H](c2ccccc2)C12CN(C(=O)c1ccccc1F)C2	inactive

Exercise: // outcome(item) with item = C[C@H](CO)N1C[C@H](C)[C@@H](CN(C)S(C)(=O)=O)OCCCC[C@H](C)Oc2ccc(NC(=O)Nc3ccc(C(F)(F)F)cc3)cc2C1=O
Solution: inactive

Exercise: // outcome(item) with item = C[C@@H]1CCCCO[C@H](CN(C)C(=O)Nc2ccc(C(F)(F)F)cc2)[C@@H](C)CN([C@@H](C)CO)C(=O)c2cc(NC(=O)Nc3cccc4ccccc34)ccc2O1
Solution: active

Exercise: // outcome(item) with item = C[C@H]1CN([C@@H](C)CO)S(=O)(=O)c2ccc(C#Cc3cccnc3)cc2O[C@H]1CN(C)C(=O)CN(C)C
Solution: inactive

Exercise: // outcome(item) with item = CCC(=O)N(C)C[C@H]1Oc2ncc(C#CC(C)C)cc2C(=O)N([C@@H](C)CO)C[C@H]1C
Solution: inactive

Exercise: // outcome(item) with item = COc1ccc(-c2ccc([C@@H]3[C@H](CN(C)S(C)(=O)=O)N[C@@H]3CO)cc2)cc1
Solution: inactive

Exercise: // outcome(item) with item = CCCNC(=O)N1CC2(C1)CN(Cc1cccc(F)c1)[C@@H](CO)c1[nH]c3cc(OC)ccc3c12
Solution: inactive

Exercise: // outcome(item) with item = CN(C)CC(=O)N[C@@H]1CC[C@H](CC(=O)O)O[C@H]1CO
Solution: inactive

Exercise: // outcome(item) with item = CC(C)CC#Cc1ccc([C@@H]2[C@@H](CO)N3C(=O)CN(C(=O)Nc4ccc(F)cc4)C[C@H]23)cc1
Solution: inactive

Exercise: // outcome(item) with item = C[C@@H]1CCCCO[C@H](CN(C)C(=O)Nc2ccc(C(F)(F)F)cc2)[C@H](C)CN([C@H](C)CO)C(=O)c2cc(NC(=O)Nc3ccc(C(F)(F)F)cc3)ccc2O1
Solution: active

Exercise: // outcome(item) with item = CNC[C@H]1OCCCC[C@@H](C)Oc2ccc(NC(=O)Nc3ccc(C(F)(F)F)cc3)cc2C(=O)N([C@H](C)CO)C[C@H]1C
Solution: active

====

# key: entry, value: activity change
- METHOD DESCRIPTION: P. falciparum Dd2 growth inhibitors, primary screen, SYBR Green fluorescence, single dose replicates (AID 1159554)
- TEST CONDITIONS: 72 h, at 10 µM, active compounds read low
About 2,100 (2.2%) of roughly 94,000 compounds were called active. The list comes from a sample in which actives are over-represented; it also holds close analogues and randomly drawn compounds.
Numeric answer only, unit % assumed.

O=C(NC1CCCCC1)N[C@H]1CC[C@H](CCNS(=O)(=O)c2ccc(F)cc2)O[C@H]1CO	24.8
COC(=O)C[C@H]1CC[C@@H]2[C@@H](COc3ccc(NC(=O)Nc4ccc(Cl)cc4)cc3C(=O)N2C)O1	9.95

Next compound, please.
Exercise: For C[C@@H]1CCCCO[C@@H](CN(C)C(=O)Nc2cccc3ccccc23)[C@H](C)CN([C@H](C)CO)C(=O)c2cc(NC(=O)NC3CCCCC3)ccc2O1 , write its activity change.
Solution: -62.1

====

- METHOD DESCRIPTION: P. falciparum Dd2 growth inhibitors, primary screen, SYBR Green fluorescence, single dose replicates (AID 1159554)
- TEST CONDITIONS: 72 h, at 10 µM
About 2,100 (2.2%) of roughly 94,000 compounds were called active. Rule as the data show it: active = activity change below about -80%; inconclusive = no clear call, values can overlap the other calls; inactive = above that. The entries come from a sample that favours actives as a whole.
I would appreciate it if you answered using one of these outcomes: 1 (yes) (active), 0 (no) (inactive)

Field: example entries. Status: answers known.
CC(C)NC(=O)N(C)C[C@@H]1OCc2ccccc2-c2c(n(C)c3ccccc23)C(=O)N([C@@H](C)CO)C[C@H]1C	0 (no)
COc1ccc2c3c(n(C)c2c1)[C@H](CO)N(Cc1ccccc1Cl)CC31CN(C(=O)CN(C)C)C1	1 (yes)
CC(C)NC(=O)N(C)C[C@H]1OCc2ccccc2-c2c(n(C)c3ccccc23)C(=O)N([C@H](C)CO)C[C@@H]1C	0 (no)
COc1ccc2c3c([nH]c2c1)[C@@H](CO)N(Cc1ccccc1F)CC31CN(C(=O)C2CC2)C1	0 (no)

Moving on to another molecule below.
Exercise: // outcome(item) with item = CN(C)CC#Cc1ccc([C@@H]2[C@H](CO)N3C(=O)CN(C(=O)Cc4cccnc4)C[C@@H]23)cc1
Solution: 1 (yes)

====

- METHOD DESCRIPTION: P. falciparum Dd2 growth inhibitors, primary screen, SYBR Green fluorescence, single dose replicates (AID 1159554)
- TEST CONDITIONS: 72 h, at 10 µM
The whole screen tested about 94,000 compounds, of which about 2,100 (2.2%) were called active. No stated cut-off is given here; in the data, active means activity change below about -80%; inconclusive means no clear call, values can overlap the other calls; inactive means above that. What follows is part of a selection rich in actives, with near analogues and random picks from the rest.
I would appreciate it if you answered using one of these outcomes: active, inactive

Field: example entries. Status: answers known.
C[C@@H]1CCCCO[C@@H](CN(C)S(=O)(=O)c2ccc(Cl)cc2)[C@H](C)CN([C@@H](C)CO)C(=O)c2cc(NC(=O)Cc3ccccc3)ccc2O1	inactive
CCNC(=O)C[C@@H]1C=C[C@@H](NC(=O)C2CCOCC2)[C@@H](CO)O1	inactive
COc1ccc(NC(=O)Nc2ccc3c(c2)C(=O)N([C@H](C)CO)C[C@@H](C)[C@H](CN(C)Cc2ccc(Cl)c(Cl)c2)OCCCC[C@@H](C)O3)cc1	active

Moving on to another compound below.
Exercise: // outcome(item) with item = C[C@@H]1CN([C@@H](C)CO)C(=O)c2cc(NC(=O)Nc3ccc(C(F)(F)F)cc3)ccc2O[C@@H](C)CCCCO[C@@H]1CN(C)C(=O)Nc1cccc2ccccc12
Solution: active

Origin of values: PubChem BioAssay AID1159554
